# System: HER3-ss+4aa/Gaussia Luciferase
# test.details: Dox-Induced Her3-ss-Gluc Assay
# Format: cell-based
# assay.context: 24 hr doxycycline induction, 293FRT/TO cells, Gaussia luciferase signal; read-out: 24 hr Dox Inducible Her3(ss + 4)Gluc 293FRT/TO: Mean IC50
pIC50: −log10 of the molar value.
reported.endpoint: pIC50

Example entries and their recorded answers appear below.
compound: CC(C)OC(C)(C)c1csc(NC(=O)c2cccn2CCCCc2ccncc2)n1
pIC50: 5.83

compound: Cc1cnc(NC(=O)c2cccn2Cc2ccncc2)s1
pIC50: 5.21

compound: CC(C)(C)c1cnc(NC(=O)c2cccn2Cc2ccncc2)s1
pIC50: 5.39

a: CCC(C)c1csc(NC(=O)c2cccn2Cc2ccncc2)n1 (stereo not drawn)
b: COCc1csc(NC(=O)c2cccn2Cc2ccncc2)n1
Query: pIC50 comparison. Which is larger, a or b ? Output the label that corresponds to your choice.
Response: a
